Data origin, for the record: the Immune Epitope Database (IEDB)

- tested on: HLA-B*39:01
- protocol description: IEDB peptide-MHC binding, purified MHC/competitive/fluorescence; filed as Kd, often an IC50 or EC50 that approximates it; bounds were set here for any values at or beyond the usual limits of such assays
- test context: source organism: Mycobacterium tuberculosis variant bovis BCG str. Pasteur 1173P2
test readout: Kd

For the sequence shown here, `RLAPEPVYT` , give the reported Kd. ≥ 20 µM

---

- tested on: HLA-A*31:01
- protocol description: IEDB peptide-MHC binding, purified MHC/competitive/radioactivity; filed as Kd, often an IC50 or EC50 that approximates it; bounds were set here for any values at or beyond the usual limits of such assays
- test context: source organism: Vaccinia virus LC16M8
test readout: Kd (µM)
One number for each entry, in µM.

For the sequence shown here, `LFASADNHPK` , give the reported Kd. 9.33

---

- tested on: HLA-A*11:01
- protocol description: IEDB peptide-MHC binding, purified MHC/competitive/fluorescence; filed as Kd, often an IC50 or EC50 that approximates it; bounds were set here for any values at or beyond the usual limits of such assays
- test context: source organism: Vaccinia virus WR
pKd: −log10 of the molar value.
test readout: pKd

For the sequence shown here, `IQFMHEQGY` , give the reported pKd. ≤ 4.70

---

- tested on: HLA-A*02:11
- protocol description: IEDB peptide-MHC binding, purified MHC/competitive/fluorescence; filed as Kd, often an IC50 or EC50 that approximates it; bounds were set here for any values at or beyond the usual limits of such assays
- test context: source organism: Coxiella burnetii RSA 331
pKd: −log10 of the molar value.
test readout: pKd

For the sequence shown here, `HMNKLPLAK` , give the reported pKd. ≤ 4.70

---

- tested on: HLA-B*48:01
- protocol description: IEDB peptide-MHC binding, purified MHC/direct/fluorescence; filed as Kd, often an IC50 or EC50 that approximates it; bounds were set here for any values at or beyond the usual limits of such assays
- test context: source organism: Francisella tularensis subsp. holarctica LVS
test readout: Kd

For the sequence shown here, `REMGIVDLL` , give the reported Kd. 93.2 nM

---

- tested on: HLA-A*31:01
- protocol description: IEDB peptide-MHC binding, purified MHC/direct/fluorescence; filed as Kd, often an IC50 or EC50 that approximates it; bounds were set here for any values at or beyond the usual limits of such assays
- test context: source organism: Influenza A virus (A/chicken/Vietnam/393/2005(H5N1))
test readout: Kd

For the sequence shown here, `VLTGNLQTL` , give the reported Kd. ≥ 20 µM

---

- tested on: HLA-B*08:03
- protocol description: IEDB peptide-MHC binding, purified MHC/direct/fluorescence; filed as Kd, often an IC50 or EC50 that approximates it; bounds were set here for any values at or beyond the usual limits of such assays
- test context: source organism: Giardia lamblia ATCC 50803
pKd: −log10 of the molar value.
test readout: pKd

For the sequence shown here, `INTLESMMK` , give the reported pKd. ≤ 4.70

---

- tested on: HLA-A*23:01
- protocol description: IEDB peptide-MHC binding, purified MHC/competitive/radioactivity; filed as Kd, often an IC50 or EC50 that approximates it; bounds were set here for any values at or beyond the usual limits of such assays
- test context: source organism: Lymphocytic choriomeningitis virus (strain Armstrong)
test readout: pKd
Numbers only, as −log10 of the molar value.

For the sequence shown here, `QYLIIQNRTW` , give the reported pKd. 7.24

---

- tested on: HLA-A*32:01
- protocol description: IEDB peptide-MHC binding, purified MHC/competitive/radioactivity; filed as Kd, often an IC50 or EC50 that approximates it; bounds were set here for any values at or beyond the usual limits of such assays
- test context: source organism: Mammarenavirus whitewaterense
test readout: Kd

For the sequence shown here, `RCWLTKNGSY` , give the reported Kd. ≥ 69.9 µM

---

- tested on: HLA-A*68:02
- protocol description: IEDB peptide-MHC binding, purified MHC/direct/fluorescence; filed as Kd, often an IC50 or EC50 that approximates it; bounds were set here for any values at or beyond the usual limits of such assays
- test context: source organism: Campylobacter jejuni
pKd: −log10 of the molar value.
test readout: pKd

For the sequence shown here, `SFWFFHPPY` , give the reported pKd. ≤ 4.70

---

- tested on: HLA-B*57:01
- protocol description: IEDB peptide-MHC binding, purified MHC/direct/fluorescence; filed as Kd, often an IC50 or EC50 that approximates it; bounds were set here for any values at or beyond the usual limits of such assays
- test context: source organism: Mammarenavirus juninense
pKd: −log10 of the molar value.
test readout: pKd

For the sequence shown here, `FRRVAHSSL` , give the reported pKd. ≤ 4.70

---

- tested on: HLA-A*24:03
- protocol description: IEDB peptide-MHC binding, purified MHC/direct/fluorescence; filed as Kd, often an IC50 or EC50 that approximates it; bounds were set here for any values at or beyond the usual limits of such assays
- test context: source organism: Giardia lamblia ATCC 50803
pKd: −log10 of the molar value.
test readout: pKd

sequence text: PPPPLQHPI
test readout: pKd
result: ≤ 4.70
--
sequence text: TVQKDGMYF
test readout: pKd
result: 6.34
--
sequence text: TTIEDILPK
test readout: pKd
result: ≤ 4.70

Now look at this one.
Please tell me: pKd of `LLIQGLKTV` , system HLA-A*24:03? ≤ 4.70

---

- tested on: HLA-A*02:17
- protocol description: IEDB peptide-MHC binding, purified MHC/competitive/radioactivity; filed as Kd, often an IC50 or EC50 that approximates it; bounds were set here for any values at or beyond the usual limits of such assays
- test context: source organism: Dengue virus 3 China/80-2/1980
test readout: pKd
One number for each entry, as −log10 of the molar value.

Would you mind giving pKd for every sequence in the list below?
1. VIFILLMLV
2. YQLWTALVSL
3. ILTDGPERV

1: 6.04; 2: 7.04; 3: 5.05

---

- tested on: HLA-A*02:01
- protocol description: IEDB peptide-MHC binding, purified MHC/direct/fluorescence; filed as Kd, often an IC50 or EC50 that approximates it; bounds were set here for any values at or beyond the usual limits of such assays
- test context: source organism: Mammarenavirus juninense
test readout: Kd

For the sequence shown here, `FRRVAHSSL` , give the reported Kd. ≥ 20 µM

---

- tested on: HLA-A*31:01
- protocol description: IEDB peptide-MHC binding, purified MHC/direct/fluorescence; filed as Kd, often an IC50 or EC50 that approximates it; bounds were set here for any values at or beyond the usual limits of such assays
- test context: source organism: Francisella tularensis subsp. holarctica LVS
pKd: −log10 of the molar value.
test readout: pKd

Please tell me: pKd of `REMGIVDLL` , system HLA-A*31:01? ≤ 4.70

---

- tested on: HLA-B*39:01
- protocol description: IEDB peptide-MHC binding, purified MHC/direct/fluorescence; filed as Kd, often an IC50 or EC50 that approximates it; bounds were set here for any values at or beyond the usual limits of such assays
- test context: source organism: Influenza A virus (A/Quail/Shanghai/8/96(H9N2))
test readout: Kd

For the sequence shown here, `LVGGREWSY` , give the reported Kd. ≥ 20 µM

---

Task for the reader: assign each of the following sequences its reported Kd.
- tested on: HLA-B*35:01
- protocol description: IEDB peptide-MHC binding, purified MHC/competitive/radioactivity; filed as Kd, often an IC50 or EC50 that approximates it; bounds were set here for any values at or beyond the usual limits of such assays
- test context: source organism: Triticum aestivum
Give bare numbers, in µM.

// solved cases for Kd follow
sequence text: QPYLQLQPFL
Kd / µM: 0.369
--
sequence text: LPYPQPQL
Kd / µM: 10.6

Would you mind giving Kd for every sequence in the list below?
1. LPAMCNVYI
2. QPLSQVSF

1. 1.1
2. 15

---

- tested on: HLA-A*03:01
- protocol description: IEDB peptide-MHC binding, purified MHC/direct/fluorescence; filed as Kd, often an IC50 or EC50 that approximates it; bounds were set here for any values at or beyond the usual limits of such assays
- test context: source organism: Entamoeba histolytica
test readout: Kd (nM)
Answers are plain numbers, in nM.

For the sequence shown here, `RMYWGVNPK` , give the reported Kd. 1.4

---

- tested on: HLA-A*02:01
- protocol description: IEDB peptide-MHC binding, purified MHC/competitive/fluorescence; filed as Kd, often an IC50 or EC50 that approximates it; bounds were set here for any values at or beyond the usual limits of such assays
- test context: source organism: Human immunodeficiency virus type 1 (Z-84 ISOLATE)
pKd: −log10 of the molar value.
test readout: pKd

Please tell me: pKd of `YIKIFIMIV` , system HLA-A*02:01? ≤ 4.70

---

- tested on: HLA-B*58:01
- protocol description: IEDB peptide-MHC binding, purified MHC/direct/fluorescence; filed as Kd, often an IC50 or EC50 that approximates it; bounds were set here for any values at or beyond the usual limits of such assays
- test context: source organism: Ebola virus - Mayinga, Zaire, 1976
test readout: Kd

For the sequence shown here, `FIYFGKKQY` , give the reported Kd. ≥ 20 µM
